- Tested on: cell migration
- TEST_SUMMARY: Chamber cell migration assay (preliminary)
- Assay type: cell-based
- EXPERIMENTAL_SETUP: 36 h, tested 200, 100, 50, 25, 10 μM
PARAMETER: IC50 (µM)
Could you give me the number in µM? Just the number is fine.

## Task Enter reported IC50 observed with cell migration for CO[C@H]1/C=C/CC/C=C/C(=O)O[C@H]([C@H](C)C(=O)CCCC2CC(=O)NC(=O)C2)/C(C)=C\[C@@H](C)[C@@H]1O
## Result 200

---

- Tested on: 4T1 mouse breast tumor cells
- TEST_SUMMARY: Chamber cell migration assay with 4T1 tumor cells
- Format: cell-based
- EXPERIMENTAL_SETUP: Boyden chamber, 6-8 h; average of three experiments
pIC50: −log10 of the molar value.
Label satisfied when pIC50 is at or above 6; anything below gets not satisfied.

## Task Textbook exercise: given the entry C[C@@H]1O[C@H]2C3=C(C(=O)[C@@H]4O[C@@H]4[C@H]3O)[C@@H]1[C@H]1[C@H](C)OC=C3[C@H](O)[C@H]4OC4C(=O)[C@@]312 (some centres unmarked) [epoxyquinol, epoxyquinol A, reference compound] , state whether its pIC50 is greater than or equal to 6.
## Result satisfied

## Task Confirm if pIC50 reported for the compound COC1C=CCCCCC(=O)OC(C(C)C)C(C)=CC(C)C1O [(R)-isopropyl macrolactone (68), (R)-Isopropyl Macrolactone] is 6 or above.
## Result not satisfied

## Task Reported pIC50 reaches at least 6 for COC1C=CCCCCC(=O)OC(C(C)C(=O)CCCC2CC(=O)N(C)C(=O)C2)C(C)=CC(C)C1O (centres unmarked) [N-methyl-2,3-dihydromigrastatin (42), N-Methyl-2,3-Dihydromigrastatin] ?
## Result not satisfied

## Task Tell me whether pIC50 is at least 6 here: COC1C=CCCCCC(=O)OC(C(C)C)C(C)=CC(C)C1O [(S)-isopropyl macrolactone (65), (S)-Isopropyl Macrolactone]
## Result not satisfied

## Task Identify whether the reported pIC50 of the following compound is 6 or greater: COC1C=CCCCCC(=NNC(=O)CCOCCOCCOCCOCCNC(=O)CCCCC2SCC3NC(=O)NC32)CCC(C)=CC(C)C1O (mixture of isomers) [biotinylated macrohydrazone (73), Biotinylated Macrohydrazone]
## Result satisfied
